- Organism: Rattus norvegicus
- method.summary: Open TG-GATES - Regimen: Single
- Assay type: toxicity, organism-based, Sprague-Dawley
- Set-up: regimen Single, gender Male, age 6 weeks
- measurement.parameters: in vivo, po, 0 mg/kg, 9 h, tissue Plasma, route gavage, dose level Control
measure: DBIL (mg/dL)
Return type: number; implicit unit mg/dL.

Reported DBIL, molecule Nc1c2c(nc3ccccc13)CCCC2 : ____
0

Reported DBIL, molecule CN/C(=N/CCSCc1nc[nH]c1C)NC#N : ____
0.074

Reported DBIL, molecule CC(C)NNC(=O)c1ccncc1 : ____
0.005

Reported DBIL, molecule CCCc1cc(=O)[nH]c(=S)[nH]1 : ____
0.006
